FYI, the data here is from PubChem BioAssay.

- assay_details: inhibitors of E-selectin induction by TNFa, primary screen, imaging, HUVEC, immunofluorescence, MLSMR starter and 10KST1 sets (AID 487);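 note: signal is fraction of cell area covered by stained E-selectin grains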
- setup_conditions: HUVEC TNFalpha-induced E-selectin immunofluorescence imaging, at 2 µM; hits give high values
Listed here: items and their measured inhibition.
endpoint: inhibition (%)

COc1ccc(Cn2c(O)cc(=O)[nH]c2=O)cc1 :: -49.2
CC(=O)c1c(OCC(=O)O)ccc2c(C)cc(=O)oc12 :: -27.6
CC(C)Oc1ccc(/C(O)=C2/C(=O)C(=O)N(CCN3CCOCC3)C2c2ccccc2)cc1 (stereo unspecified) :: -21.9
COc1ccc(C(=O)N/C(N)=N/c2nc3ccccc3o2)cc1 :: -140
CC(NC(=O)Nc1nccs1)(C(F)(F)F)C(F)(F)F :: -11.3
CN1CCC(=C2c3ccccc3C=Cc3ccccc32)CC1 :: -80
Cc1ccc2cc(CN(C(=O)c3ccco3)c3ccccc3C)c(=O)[nH]c2c1 :: -73.2
COCCNC(=O)c1c(N)n(/N=C/c2cccs2)c2nc3ccccc3nc12 :: -36.6
OCCOCCNc1ncnc2c1cnn2-c1ccccc1 :: -38.9
COc1ccc(NC(=O)C2CSC3c4ccccc4C(=O)N23)cc1 (stereo unspecified) :: -32.1
C[C@H](CCC(=O)O)[C@H]1CC[C@H]2[C@@H]3C(=O)C[C@@H]4CC(=O)CC[C@]4(C)[C@H]3CC(=O)[C@]12C :: -37.7

###

- system_tested: Alpha-2C adrenergic receptor (Homo sapiens)
- assay_details: modulators of alpha2C/GIRK thallium flux, primary screen, cell-based, HEK293 alpha2C/GIRK1/2 (AID 624);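 note: slope of fluorescence ratio to pre-addition baseline per second over 15 to 24 s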
- setup_conditions: thallium flux BTC fluorescence, at 10 µM, actives lie on both sides
endpoint: slope

CCOC(=O)Cc1nnc(Nc2cccc(O)c2)c2ccccc12 :: 0.00496
COc1cc(OC)cc(C(=O)N2CCC(N3CCCCCC3)CC2)c1 :: 0.00559
CCOC(=O)c1ccccc1OCc1cc(/C=N/n2cncn2)ccc1OC :: 0.00447
COc1ccc(/C=N/n2cncn2)cc1CSc1ccccn1 :: 0.00478
c1ccc2c(CC3=NCCN3)cccc2c1 :: 0.00554
CC(O)Cn1ccccc1=N (stereo not drawn) :: 0.00523
CN(C)c1oc(-c2cccs2)nc1C#N :: 0.00583
CCSC(SCC)[C@H](O)[C@@H](O)[C@H](O)[C@H](O)CO :: 0.00559
CC1CCc2cc(F)cc3c(O)c(C(=O)NCC4CCCO4)c(=O)n1c23 (stereo not drawn) :: 0.0054
CNCCC=C1c2ccccc2CCc2ccccc21 :: 0.00426
Cc1ccc(C(=O)C2=C(O)C(=O)N(c3ncccn3)C2c2cccc(Cl)c2)o1 (stereo not drawn) :: 0.00586
CCc1cc2c(=O)c(-c3nc4ccccc4[nH]3)coc2cc1OC(=O)N1CCOCC1 :: 0.00512
O=C1NC(c2cccs2)Nc2ccccc21 (stereo not drawn) :: 0.00756
COc1ccc(CCNC(=O)c2ccc(=O)[nH]n2)cc1OC :: 0.00414
Cc1ccc(-c2ccccc2NC(=O)C2C3C=CC(C3)C2C(=O)O)o1 (stereo not drawn) :: 0.00466
O=C(c1nsnc1-c1ccccc1O)N1CCCCC1 :: 0.007
CC1(C)Cc2nc(NCCCO)c(C#N)cc2CO1 :: 0.00519
Nc1c(C(=O)NCC2CCCO2)c2nc3ccccc3nc2n1/N=C/c1ccncc1 (stereo not drawn) :: 0.00723
CC1(C)Cc2c(c(N3CCOCC3)nc3snc(N)c23)CO1 :: 0.00566
O=C(O)c1nsc(Cl)c1Cl :: 0.00603
O=c1c2c3c(sc2n2cnnc2n1Cc1ccccc1)CN(Cc1ccccc1)CC3 :: 0.0049
N=c1nc(N2CCCCC2)cc(N)n1O :: 0.00444
COc1cccc(C2C(C(=O)c3cccs3)=C(O)C(=O)N2c2cc(C)on2)c1 (stereo not drawn) :: 0.00539
CC(CN1c2ccccc2Sc2ccccc21)N(C)C (stereo not drawn) :: 0.0061
CN1CCN(c2ncnc3c2[nH]c2ccc(F)cc23)CC1 :: 0.00525
CCOC(=O)C1=C(C)NC(SCC(=O)Nc2nc(C)cs2)=C(C#N)C1c1cccs1 (stereo not drawn) :: 0.006
CCc1cc(=O)oc2c(CN3CCCC3)c(O)c(Cl)cc12 :: 0.0046
CCCc1nc(N2CCOCC2)c(C#N)c2c1CCCC2 :: 0.00439
c1cc(-c2nnc3sc(C4CCCCC4)nn23)ccn1 :: 0.00483
C=CCn1c(=S)[nH]c2nc3c(cc2c1=O)COC(C)(C)C3 :: 0.00772
C=C(C)C1Cc2c(C)nn(-c3nc(C)cc(C)n3)c2C1 (stereo not drawn) :: 0.00521
O=C(O)CC(C(=O)N(c1ccccc1)c1ccccc1)N1CCOCC1 (stereo not drawn) :: 0.00573
Cc1cc(C(F)(F)F)nn1CC(=O)NCC1CCCO1 (stereo not drawn) :: 0.00552
CCOC(=O)c1c(NC(=O)CCN2CCOCC2)sc2c1CC(C)(C)OC2 :: 0.00607
CC(C[N+](C)(C)C)OC(N)=O (stereo not drawn) :: 0.00575
CCOC(=O)CCc1c(C)c(C#N)c2[nH]c3ccccc3n2c1=O :: 0.00416
Cc1nnc(SCC2=C(C(=O)O)N3C(=O)[C@@H](NC(=O)Cn4cnnn4)[C@H]3SC2)s1 :: 0.00463
COc1ccc(OC)c(C2/C(=C(/O)c3cnn(-c4ccccc4)c3C)C(=O)C(=O)N2CCN(C)C)c1 (stereo not drawn) :: 0.00657
CC1=C(C)C(=O)C(CCCCC#CCCCC#CCO)=C(C)C1=O :: 0.00343
CC(C)C1Cc2c(sc3c2c(=O)n(-c2ccccc2)c2nncn32)CO1 (stereo not drawn) :: 0.00589
CC(NC(=O)Nc1nccs1)(C(F)(F)F)C(F)(F)F :: 0.00627
Nc1c(Br)cc2oc(-c3ccccc3)nc2c1Br :: 0.00567
CC(=O)OCC[N+](C)(C)C :: 0.0173
Cc1cc(Cl)ccc1OCC(=O)OC(C)C(=O)N(C)C (stereo not drawn) :: 0.00631
CN1CCN(C(=O)CSc2nc(-c3cccs3)ccc2C#N)CC1 :: 0.00609
COc1ccc(-c2cc3nc4n(c(=O)c3s2)CCOC4)cc1 :: 0.0053
Cc1ccc(S(=O)(=O)N2CCC(N3CCCCCC3)CC2)cc1 :: 0.0051
C[C@@H]1C[C@H]2[C@@H]3CCC4=CC(=O)C=C[C@]4(C)[C@@]3(F)[C@@H](O)C[C@]2(C)[C@@]1(O)C(=O)COP(=O)(O)O :: 0.00437
